Biological target: recombinant human MASP2 active protease (amino acids 297-686, C-terminal His Tag) (human, UniProt O00187 297-686)
Sequence (O00187 other isoform, or with tags, fused parts or gaps limits assumed): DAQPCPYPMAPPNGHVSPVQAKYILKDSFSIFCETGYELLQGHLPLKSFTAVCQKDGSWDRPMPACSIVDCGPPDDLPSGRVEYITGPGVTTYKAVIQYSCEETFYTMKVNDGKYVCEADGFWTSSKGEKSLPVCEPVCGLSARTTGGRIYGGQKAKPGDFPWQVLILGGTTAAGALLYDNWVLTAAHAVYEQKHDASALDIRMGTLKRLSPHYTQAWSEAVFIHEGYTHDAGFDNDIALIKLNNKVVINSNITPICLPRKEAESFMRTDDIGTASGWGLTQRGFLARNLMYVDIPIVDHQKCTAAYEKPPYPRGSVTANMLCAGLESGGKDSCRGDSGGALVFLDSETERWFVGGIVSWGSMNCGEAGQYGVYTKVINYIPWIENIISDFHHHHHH
Assay: cell-based or functional assay
Bridge positions count the residues as written; N and C are the ends. Square brackets hold non-standard residues; d marks the D form. Ends that are not written are not given here. tBuAla = CC(C)(C)C[C@H](N)C(=O)O; Pen = CC(C)(S)[C@H](N)C(=O)O; Aib = CC(C)(N)C(=O)O
metric name: human MASP2 IC50

Ask: Request the reported human MASP2 IC50 associated with [Aib]ICSRS[tBuAla]PPI[Pen]IPD-NH2 (disulfide 3-11; N-terminus assumed; SMILES CC[C@H](C)[C@@H]1NC(=O)[C@@H]2CCCN2C(=O)[C@@H]2CCCN2C(=O)[C@H](CC(C)(C)C)NC(=O)[C@H](CO)NC(=O)[C@H](CCCNC(=N)N)NC(=O)[C@H](CO)NC(=O)[C@@H](NC(=O)[C@@H](NC(=O)C(C)(C)N)[C@@H](C)CC)CSSC(C)(C)[C@@H](C(=O)N[C@H](C(=O)N2CCC[C@H]2C(=O)N[C@@H](CC(=O)O)C(N)=O)[C@@H](C)CC)NC1=O) [(Aib)-IC+SRS-((tBu)A)-PPI-(Pen)+IPD-NH2]
Reply: 36 nM

These data points were gathered from patent US20210246166A1.
